Entries and their D50 (nm)
# Assay Method Text: D50 particle size of milled drug, turbidimetry
# Format: physicochemical
# Particulars: size detection by turbidimetry; after magnetic stir-bar milling, parameters of Table 2
# Source text: Valdecoxib, linezolid, phenytoin, griseofulvin and carbamazepine were milled according to the general procedure described for celecoxib in Example 1.

Reference set, count: 4
[
  {
    "Compound": "CC(=O)NC[C@H]1CN(c2ccc(N3CCOCC3)c(F)c2)C(=O)O1",
    "Measured Property": "D50 (nm)",
    "Recorded Value": "1900^1 nm"
  },
  {
    "Compound": "COC1=CC(=O)C[C@@H](C)[C@]12Oc1c(Cl)c(OC)cc(OC)c1C2=O",
    "Measured Property": "D50 (nm)",
    "Recorded Value": "250^1 nm"
  },
  {
    "Compound": "NC(=O)N1c2ccccc2C=Cc2ccccc21 [Carbamazepine]",
    "Measured Property": "D50 (nm)",
    "Recorded Value": "2500^1 nm"
  },
  {
    "Compound": "O=C1NC(=O)C(c2ccccc2)(c2ccccc2)N1",
    "Measured Property": "D50 (nm)",
    "Recorded Value": "200^1 nm"
  }
]

// moving on: another record for D50 (nm)
Ask: For `Cc1onc(-c2ccccc2)c1-c1ccc(S(N)(=O)=O)cc1` , write its D50 (nm).
Result: 460^1 nm
